Catalogue of IC50 values
TARGET_OF_ASSAY: P2X purinoceptor 7 (Homo sapiens, UniProt Q99572)
Sequence (Q99572 whole entry): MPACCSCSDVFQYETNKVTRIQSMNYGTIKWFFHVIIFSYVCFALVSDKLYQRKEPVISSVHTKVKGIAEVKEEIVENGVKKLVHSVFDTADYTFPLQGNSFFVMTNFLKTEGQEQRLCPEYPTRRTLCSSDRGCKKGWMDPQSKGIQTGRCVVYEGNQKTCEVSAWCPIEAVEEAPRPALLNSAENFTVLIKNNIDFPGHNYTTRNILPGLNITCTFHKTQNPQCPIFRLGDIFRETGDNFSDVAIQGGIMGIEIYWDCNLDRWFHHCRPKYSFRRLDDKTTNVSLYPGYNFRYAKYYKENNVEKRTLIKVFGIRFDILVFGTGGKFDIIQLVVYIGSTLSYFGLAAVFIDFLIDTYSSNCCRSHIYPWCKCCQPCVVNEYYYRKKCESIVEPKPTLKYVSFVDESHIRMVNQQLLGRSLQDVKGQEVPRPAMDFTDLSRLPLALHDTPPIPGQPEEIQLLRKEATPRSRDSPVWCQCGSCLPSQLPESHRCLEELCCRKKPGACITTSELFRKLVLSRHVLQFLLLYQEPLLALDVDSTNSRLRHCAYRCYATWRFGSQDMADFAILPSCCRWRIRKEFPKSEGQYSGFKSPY
PROTOCOL_DESCRIPTION: Antagonist activity at human P2X7 receptor expressed in THP1 cells assessed as inhibition of BzATP-induced IL-1beta release preincubated for 20 mins followed by stimulation with BzATP for 30 mins by sandwich ELISA
Assay type: cell-based
OBSERVATION_TYPE: IC50

- COMPOUND: "C[C@H]1CC[C@@](O)(CNC(=O)c2cc(C3CCOC3)n3cccc(Cl)c23)CC1 (some centres not stated)"
  TARGET_OF_ASSAY: "P2X purinoceptor 7 (Homo sapiens, UniProt Q99572)"
  ENDPOINT_RESULT: "< 10 nM"
- COMPOUND: "CN(C)C(=O)CCNc1ccc2c(C(=O)NCC3CCC(F)(F)CC3)c(Cl)ccc2n1"
  TARGET_OF_ASSAY: "P2X purinoceptor 7 (Homo sapiens, UniProt Q99572)"
  ENDPOINT_RESULT: "< 10 nM"
